Data provenance is paper PMC11596392.

# MIC listing for each entry below
Test system: S. aureus (KCTC 1621)
Format: cell-based, Staphylococcus aureus
Conditions: 4 μM of FeCl3
Experimental: To comprehensively evaluate the therapeutic potential of BP100 and the five selected analogs, we assessed their capacity to maintain antibacterial activity in the presence of physiological salts and serum (Table 4). […] The minimal inhibitory concentrations (MICs) of the peptides against bacterial strains were determined using a modified broth-microdilution method in accordance with the National Committee for Clinical Laboratory Standards (NCCLS) guidelines. […]
Where no end group is shown, it is not given here.
observationType: MIC

>>> df
                substance  result
0   KKLWKKILKWL-NH2 [BP8]    4 µM
1  KKWFKKWLKWL-NH2 [BP13]    8 µM
2   KKWFKKILKWL-NH2 [BP6]    8 µM
3  KKLFKKIWKWL-NH2 [BP11]    4 µM
4   KKWWKKILKYL-NH2 [BP5]    4 µM
